This section presents compounds with their documented pIC50 values.
Target: Tpa1p (Saccharomyces cerevisiae)
Construct: His6 (N); made in house; host or cells: E. coli BL21(DE3)
Sequence (P40032 with tags, fused parts or gaps): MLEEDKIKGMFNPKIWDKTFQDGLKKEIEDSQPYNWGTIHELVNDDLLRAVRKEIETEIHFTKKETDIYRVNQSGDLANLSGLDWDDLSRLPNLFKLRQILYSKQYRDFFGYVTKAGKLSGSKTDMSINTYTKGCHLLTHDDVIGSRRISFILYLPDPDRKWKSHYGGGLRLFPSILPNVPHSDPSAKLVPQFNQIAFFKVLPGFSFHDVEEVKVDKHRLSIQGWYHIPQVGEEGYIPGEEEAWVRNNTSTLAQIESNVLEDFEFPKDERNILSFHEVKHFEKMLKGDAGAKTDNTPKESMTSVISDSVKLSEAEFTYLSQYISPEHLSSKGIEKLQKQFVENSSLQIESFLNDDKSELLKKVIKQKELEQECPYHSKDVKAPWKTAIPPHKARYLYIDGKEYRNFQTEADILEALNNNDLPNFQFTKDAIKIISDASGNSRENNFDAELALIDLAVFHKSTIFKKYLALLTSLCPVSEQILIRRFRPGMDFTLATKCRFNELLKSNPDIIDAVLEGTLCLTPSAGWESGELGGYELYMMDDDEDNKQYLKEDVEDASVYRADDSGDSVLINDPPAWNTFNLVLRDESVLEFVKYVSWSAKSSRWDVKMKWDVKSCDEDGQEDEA
Assay Method Text: MALDI-TOF MS Tpa1p hydroxylation assay
Format: biochemical
Measurement Context: isolated recombinant enzyme, 2 µM; read-out: IC50 Tpa1p
Reminder that pIC50 is minus the log10 of a molar concentration.

Cc1nc(C(=O)NCC(=O)O)c(O)c2ccc(Oc3ccccc3)cc12; 4.89

Exercise: Provide the documented pIC50 with Tpa1p (Saccharomyces cerevisiae) as the system for `O=c1c(-n2ccnn2)c[nH]n1-c1cc(N2CCOCC2)ncn1`
Key: 5.42
